For each entry below, report its IC50 value.
System: human PCSK9
Method Summary: Cell Free PCSK9 Assay (PCSK9-luciferase mRNA translation in HeLa lysate)
Format: biochemical
Condition Label: PCSK9-luciferase RNA, 30° C. for 45 minutes, top concentration 100 μM
The answer is to be given in µM; state only the numeric part.

Given the molecule CCOC(=O)O[C@@H](C)n1nnnc1-c1c(-c2ccc(C(=O)N(c3ncccc3C)[C@@H]3CCCNC3)cc2)cnn1C , what is its reported IC50? 8.2

Given the molecule CCOC(=O)O[C@H](C)n1nnnc1-c1c(-c2ccc(C(=O)N(c3ncccc3C)[C@@H]3CCCNC3)cc2)cnn1C , what is its reported IC50? 6.4

Given the molecule Cc1cccnc1N(C(=O)c1ccc(-c2cnn(C)c2-c2nn[nH]n2)cn1)[C@@H]1CCCNC1 , what is its reported IC50? 5.8

Given the molecule CCOC(=O)O[C@@H](C)n1nnnc1-c1c(-c2ccc(C(=O)N(c3ncccc3Cl)[C@@H]3CCCNC3)cc2F)cnn1C , what is its reported IC50? 13.4

Given the molecule CCOC(=O)O[C@H](C)n1nnnc1-c1c(-c2ccc(C(=O)N(c3ncccc3Cl)[C@@H]3CCCNC3)cc2)cnn1C , what is its reported IC50? 15.4
